Hey, just so you know, these numbers are from patent US12134610B2.

# Measured Target: human somatostatin receptor subtype 2 (Homo sapiens)
# Construct: expressed in transfected cells
# Sequence (P30874 whole entry): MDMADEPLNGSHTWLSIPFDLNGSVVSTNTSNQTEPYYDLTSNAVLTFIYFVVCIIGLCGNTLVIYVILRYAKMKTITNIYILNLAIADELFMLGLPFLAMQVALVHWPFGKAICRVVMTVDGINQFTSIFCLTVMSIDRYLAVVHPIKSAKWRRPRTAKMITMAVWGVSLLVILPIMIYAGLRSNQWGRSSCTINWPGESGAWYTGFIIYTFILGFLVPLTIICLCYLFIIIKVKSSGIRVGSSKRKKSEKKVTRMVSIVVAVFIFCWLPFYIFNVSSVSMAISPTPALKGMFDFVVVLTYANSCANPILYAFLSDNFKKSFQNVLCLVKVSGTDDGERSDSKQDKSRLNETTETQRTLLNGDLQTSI
# Assay Remarks: Functional cAMP assay for SSTR2 agonists (HTRF) in CHO-K1 cells
# Assay type: cell-based
# Experimental Parameters: CHO-K1 cells stably expressing human SST2, 20 min; read-out: hSST2 cAMP Avg EC50
Starred links: 1 amine or outer side, 2 acyl side, 3 side chain; linkers in the order of their positions; H or OH if unused. Non-standard residues stand in square brackets, D forms with d. Residues, ends and D or L forms follow the SMILES beside them. *: point of attachment. X4 = Cc1cc(F)cc(-c2cnc(NCCNC(=O)CCOCCOCCOCCOCCC(=O)*)c(-c3nc4ccc(Cl)cc4[nH]3)c2N2CCC(N)CC2)c1; Dolaproine = CO[C@@H]([C@@H]1CCCN1)[C@@H](C)C(=O)O; Dil = CC[C@H](C)[C@H](NC)[C@@H](CC(=O)O)OC; PABC = O=C(OCc1ccc(N[*:1])cc1)[*:2]; X2 = C[C@@H](N*)[C@@H](O)c1ccccc1; Cya = N[C@@H](CS(=O)(=O)O)C(=O)O; Cit = NC(=O)NCCC[C@H](N)C(=O)O; NMeV = CN[C@H](C(=O)O)C(C)C

Compound	EC50
CC[C@H](C)[C@@H]([C@@H](CC(=O)N1CCC[C@H]1[C@H](OC)[C@@H](C)C(=O)N[C@H](C)[C@@H](O)c1ccccc1)OC)N(C)C(=O)[C@@H](NC(=O)[C@H](C(C)C)N(C)C(=O)OCc1ccc(NC(=O)[C@H](CCCNC(N)=O)NC(=O)[C@@H](NC(=O)[C@H](CS(=O)(=O)O)NC(=O)[C@H](CCC(=O)O)NC(=O)CCOCCOCCOCCOCCC(=O)NCCNc2ncc(-c3cc(C)cc(F)c3)c(N3CCC(N)CC3)c2-c2nc3ccc(Cl)cc3[nH]2)C(C)C)cc1)C(C)C [Compound 114] (X4-E[Cya]V[Cit][PABC][NMeV]V[Dil][Dolaproine]-X2)	0.22 nM
CC[C@H](C)[C@@H]([C@@H](CC(=O)N1CCC[C@H]1[C@H](OC)[C@@H](C)C(=O)N[C@H](C)[C@@H](O)c1ccccc1)OC)N(C)C(=O)[C@@H](NC(=O)[C@H](C(C)C)N(C)C(=O)OCc1ccc(NC(=O)[C@H](CCCNC(N)=O)NC(=O)[C@@H](NC(=O)[C@H](CCC(=O)O)NC(=O)[C@H](CCC(=O)O)NC(=O)CCOCCOCCOCCOCCC(=O)NCCNc2ncc(-c3cc(C)cc(F)c3)c(N3CCC(N)CC3)c2-c2nc3ccc(Cl)cc3[nH]2)C(C)C)cc1)C(C)C [Compound 110] (X4-EEV[Cit][PABC][NMeV]V[Dil][Dolaproine]-X2)	0.57 nM
